Target: T1, Cyk3, Q07533
T1 sequence (Q07533 1-83, looked up): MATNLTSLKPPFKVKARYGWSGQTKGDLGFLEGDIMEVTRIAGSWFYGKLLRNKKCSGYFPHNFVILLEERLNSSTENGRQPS
Test: SPOT array
Conditions: median of control spots 1451
observable: SPOT intensity

binder: KKEKKPPKIPKKVYT
SPOT intensity: 1

P = SNRRPVPRRPSQPLN
Q = SSTPTTPERPKRKSG
(Q) Parameter check: reported SPOT intensity is higher for which label, P or Q ? Your choice should be expressed through its label.
(A) Q

a = PPIPIVPSSPAPPLP
b = NNQRRKPLLLNIGDH
(Q) API: POST /compare with a and b ; response names the item with higher SPOT intensity. Pick one; state its label.
(A) b
(b: 1, a: 0)

I = DKSRPPRPPPKPLHL
II = MKRSRPSRSIPYTTP
(Q) Of I versus II , which is the one with smaller reported SPOT intensity? // caller expects the label of the chosen entry
(A) I
(I: 0, II: 1)
